Reported CC50 at 24 h by item:
- TEST_PROTOCOL: Cytotoxicity assay (Cytotoxicity LDH Assay Kit)
- Assay type: cell-based
- CONDITION_LABEL: human, A3.01 cells, read-out: CC50 ± SD against A3.01
Quick reminder: number only, in µM, skip the unit.

Query string: Return reported CC50 at 24 h; argument: C/C=C(/C)C(=O)O[C@H]1C(C)=C[C@]23C(=O)[C@@H](C=C(CO)[C@@H](O)[C@]12O)[C@H]1[C@@H](C[C@H]3C)C1(C)C [PEP005, ingenol-3-angelate]
Result string: 47

Query string: For CC[C@H](NC(=O)[C@H](C)NC)C(=O)N1C[C@@H](O)C[C@H]1Cc1c(-c2[nH]c3cc(F)ccc3c2C[C@@H]2C[C@H](O)CN2C(=O)[C@H](CC)NC(=O)[C@H](C)NC)[nH]c2cc(F)ccc12 [Birinapant] then?
Result string: 0.2

====

- TEST_PROTOCOL: Cytotoxicity assay (Cytotoxicity LDH Assay Kit)
- Type: cell-based
- CONDITION_LABEL: human, ACH-2 cells, read-out: CC50 ± SD against ACH-2
Reported CC50 at 24 h by item:
Quick reminder: number only, in µM, skip the unit.

COMPOUND: O=C(CCCCCCC(=O)Nc1ccccc1)NO
RECORDED_VALUE: 9

Query string: Return reported CC50 at 24 h; argument: C/C=C(/C)C(=O)O[C@H]1C(C)=C[C@]23C(=O)[C@@H](C=C(CO)[C@@H](O)[C@]12O)[C@H]1[C@@H](C[C@H]3C)C1(C)C [PEP005, ingenol-3-angelate]
Result string: 19

====

- System: J1.1
- TEST_PROTOCOL: Cytotoxicity assay (Cytotoxicity LDH Assay Kit)
- Type: cell-based
- CONDITION_LABEL: J1.1 cells, 24 h; read-out: CC50 ± SD against J1.1
ASSAY_READOUT: CC50

Query string: Return reported CC50; argument: FC(F)(F)Oc1ccc2nc(-c3ccc(OCCOCCOc4ccc(-c5nc6ccc(OC(F)(F)F)cc6[nH]5)nc4)cn3)[nH]c2c1 [AI-10-49]
Result string: > 100 µM

====

- Test system: OM10.1
- TEST_PROTOCOL: Cytotoxicity assay (Cytotoxicity LDH Assay Kit)
- Format: cell-based
- CONDITION_LABEL: OM10.1 cells, 24 h; read-out: CC50 ± SD against OM10.1
ASSAY_READOUT: CC50

Query string: Return reported CC50; argument: FC(F)(F)Oc1ccc2nc(-c3ccc(OCCOCCOc4ccc(-c5nc6ccc(OC(F)(F)F)cc6[nH]5)nc4)cn3)[nH]c2c1
Result string: > 100 µM

====

- System: U937
- TEST_PROTOCOL: Cytotoxicity assay (Cytotoxicity LDH Assay Kit)
- Format: cell-based
- CONDITION_LABEL: U937 cells, 24 h; read-out: CC50 ± SD against U937
- Protocol: To determine the cytotoxicity induced by LRAs and its related compounds, cells (5 × 10^5 cells/mL) were cultured in the presence or absence of LRA. After 24 h, cytotoxicity assays were performed using a Cytotoxicity LDH Assay Kit (Dojindo, Kumamoto, Japan) according to the manufacturer’s instructions. The number of living cells with the drug was measured and compared with those without the drug, and data are shown as percentage (%) of control.
ASSAY_READOUT: CC50

Query string: Return reported CC50; argument: FC(F)(F)Oc1ccc2nc(-c3ccc(OCCOCCOc4ccc(-c5nc6ccc(OC(F)(F)F)cc6[nH]5)nc4)cn3)[nH]c2c1 [AI-10-49]
Result string: > 100 µM
